I'd appreciate it if you could supply protein stability index values for the items below.
B1: MMP1 (parent)
chain: FVRGDHRDNSPFDGPGGNLAHAFQ

- Variants of: B1
- Protocol text: protein stability index of a GFP-peptide fusion (GPS, HEK-293T) (PSI 1-6); higher = more stable;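 note: lentivirally expressed fusions sorted by FACS into six bins by GFP to DsRed ratio, PSI derived from sequencing read proportions per bin multiplied by bin number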
- Condition context: c terminus: a fixed tail appended
One number for each entry.

Worked cases, answers included:
INSERT INTO assay_data (mutation_list, numeric_result) VALUES
  ('D13V', 3.19),
  ('A22L', 1.74),
  ('D8E', 1.31),
  ('A22F', 2.25),
  ('A20L', 2.49),
  ('F12Y', 2.89),
  ('S10Y', 1.71),
  ('G16I', 2.4),
  ('A20I', 2.04),
  ('N18C', 1.5);

// switching to the query variant
-- ask Name the reported protein stability index value associated with the variant F23W
-- reply 2.74
